Source listed as patent US8715959B2.

system: A110P mutant CfEcR-A/BCDEF (Choristoneura fumiferana, UniProt O77255, A393P)
Sequence (O77255 entry or part of it A393P): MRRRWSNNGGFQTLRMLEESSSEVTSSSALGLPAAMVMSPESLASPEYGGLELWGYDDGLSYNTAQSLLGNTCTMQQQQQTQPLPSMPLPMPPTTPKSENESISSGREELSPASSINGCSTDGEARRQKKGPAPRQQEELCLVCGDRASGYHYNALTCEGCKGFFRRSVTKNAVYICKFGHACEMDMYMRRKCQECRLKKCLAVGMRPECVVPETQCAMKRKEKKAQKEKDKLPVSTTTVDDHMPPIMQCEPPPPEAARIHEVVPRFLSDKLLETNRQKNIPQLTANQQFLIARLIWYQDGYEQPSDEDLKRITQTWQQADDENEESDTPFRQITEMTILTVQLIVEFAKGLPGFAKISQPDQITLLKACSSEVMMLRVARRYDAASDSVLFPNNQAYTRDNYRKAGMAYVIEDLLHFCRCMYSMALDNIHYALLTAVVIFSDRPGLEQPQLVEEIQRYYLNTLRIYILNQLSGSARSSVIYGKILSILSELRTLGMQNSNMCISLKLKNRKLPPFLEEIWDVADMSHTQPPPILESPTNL
Sequence (O76202 whole entry, further chain): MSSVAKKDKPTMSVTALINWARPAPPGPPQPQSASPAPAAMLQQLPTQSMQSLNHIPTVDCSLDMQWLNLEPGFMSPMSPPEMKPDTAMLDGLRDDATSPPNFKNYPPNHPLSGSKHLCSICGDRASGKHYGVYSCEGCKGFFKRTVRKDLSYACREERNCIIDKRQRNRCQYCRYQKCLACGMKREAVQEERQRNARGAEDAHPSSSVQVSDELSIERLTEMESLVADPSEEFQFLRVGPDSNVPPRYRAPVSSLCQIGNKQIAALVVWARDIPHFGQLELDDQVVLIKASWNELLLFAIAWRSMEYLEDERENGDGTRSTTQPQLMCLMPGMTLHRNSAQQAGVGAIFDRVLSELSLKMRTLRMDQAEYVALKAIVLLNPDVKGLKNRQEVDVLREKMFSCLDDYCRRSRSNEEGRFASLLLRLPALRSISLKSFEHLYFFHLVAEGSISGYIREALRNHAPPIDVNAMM
measurement description: 3H-RH2485 competition ligand binding, A110P mutant CfEcR-A/BCDEF with CfUSP
assay metric: IC50 (µM)
State just the number; it will be interpreted in µM.

Data request, read-out IC50, for `Cc1cc(C)cc(C(=O)N(NC(=O)c2ccc3c(c2C)OCCO3)C(C)(C)C)c1`
0.0257

Would you mind doing `CCc1c(OC)cccc1C(=O)NN(C(=O)c1cc(C)cc(C)c1)C(C)(C)C` as well?
0.0129

Would you mind doing `CCc1ccc(C(=O)NN(C(=O)c2cc(C)cc(C)c2)C(C)(C)C)cc1` as well?
0.322

Would you mind doing `COc1cccc(C(=O)NN(C(=O)c2cc(C)cc(C)c2)C(C)(C)C)c1C` as well?
0.35
